The reported measurements were obtained from ChEMBL document CHEMBL1145442.

pKi: −log10 of the molar value.
For 5-hydroxytryptamine receptor 2A (Rattus norvegicus), measured pKi is reported for the entries below.
measured attribute: pKi

molecule: COc1cc2c(cc1OC)C(=O)CC(CN1CCC3(CC1)NC(=O)NC3=O)C2 (configuration not stated)
target or test system: 5-hydroxytryptamine receptor 2A (Rattus norvegicus)
Sequence (P14842 whole entry): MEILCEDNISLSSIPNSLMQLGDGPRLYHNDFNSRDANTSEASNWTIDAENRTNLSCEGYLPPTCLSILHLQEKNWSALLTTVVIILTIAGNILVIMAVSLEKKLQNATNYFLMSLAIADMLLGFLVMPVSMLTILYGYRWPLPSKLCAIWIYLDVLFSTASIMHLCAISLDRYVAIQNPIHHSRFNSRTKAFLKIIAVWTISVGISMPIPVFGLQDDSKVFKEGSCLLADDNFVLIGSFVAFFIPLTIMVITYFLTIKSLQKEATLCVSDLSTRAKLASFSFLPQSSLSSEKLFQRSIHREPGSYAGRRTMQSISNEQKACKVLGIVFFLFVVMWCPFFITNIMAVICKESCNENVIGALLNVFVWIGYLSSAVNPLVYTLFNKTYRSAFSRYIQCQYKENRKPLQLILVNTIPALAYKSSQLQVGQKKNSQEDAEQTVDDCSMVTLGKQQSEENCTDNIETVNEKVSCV
result: < 5.00
//
molecule: O=C1CC(CN2CCC3(CC2)NCNC3=O)Cc2ccccc21 (configuration not stated)
target or test system: 5-hydroxytryptamine receptor 2A (Rattus norvegicus)
result: < 5.00
